System: melan-a cells
Assay: Melanin assay in cultured murine melanocytes (melan-a)
Format: cell-based
Details: melanin content, 1 μM, 72 hours incubation
Experimental: The Spectrum Collection library consisting of 2000 drug compounds or natural products was screened to identify novel pigmentation inhibitors or stimulators in cultured murine melanocytes (melan-a). Compounds were dissolved in dimethylsulfoxide (DMSO) to a final concentration of 10 mM. […] For the primary and secondary screening, cells were harvested and dissolved in 200 μl of 2N NaOH in 20% DMSO at 70° C. A 180-μl aliquot of the resulting solution was measured for absorbance at 490 nm. […]
Provide the reported % after treatment @ 1 μM of each item.
Numbers only, in %.

CC[C@H]1[C@@H]2C[C@H]3[C@@H]4N(C)c5ccccc5[C@]45C[C@@H]([C@H]2[C@H]5O)N3[C@@H]1O [ID 2, Ajmaline, reference compound] = 117

Each compound below has a reported value. Please supply its % after treatment @ 1 μM.
1. COC(=O)[C@H]1[C@H]2C[C@@H]3c4[nH]c5cc(OC)ccc5c4CCN3C[C@H]2C[C@@H](OC(=O)c2cc(OC)c(OC)c(OC)c2)[C@@H]1OC [ID 4, Reserpine, reference compound]
2. COC(=O)C1=CO[C@@H](C)[C@H]2CN3CCc4c([nH]c5ccccc45)[C@@H]3C[C@H]12 [ID 3, Ajmalicine, reference compound]

Result ::
[117, 106]

====

test system: melan-a cells; test: Melanin assay in cultured murine melanocytes (melan-a); format: cell-based; details: melanin content, 1 μM, 72 hours incubation
Provide the reported % after treatment @ 1 μM of each item.
One number for each entry, in %.

Study these solved cases before continuing.
COc1ccc2c3c([nH]c2c1)[C@@H]1C[C@H]2[C@@H](C[C@@H](O)[C@H](OC)[C@H]2C(=O)O)CN1CC3 [ID 5, Reserpic Acid] = 111
COC(=O)C1=CO[C@@H](C)[C@H]2CN3CCc4c([nH]c5cc(OC)ccc45)[C@@H]3C[C@H]12 [ID 6, Pubescine] = 172

Now consider a different compound.
Entry under test: COC(=O)[C@H]1[C@H]2C[C@H]3c4[nH]c5ccccc5c4CCN3C[C@@H]2CC[C@@H]1O [ID 1, Corynanthine] . Its % after treatment @ 1 μM was 111
